CCK-B/CCK-A values for the compounds below.
experimentalTarget: CCK-A (Rattus norvegicus, UniProt P30551)
Construct: CCK-A receptors prepared from the cell membranes of rat pancreas; from tissue; host or cells: rat pancreas membranes (male rats, Japan Laboratory Animals)
Sequence (P30551 whole entry): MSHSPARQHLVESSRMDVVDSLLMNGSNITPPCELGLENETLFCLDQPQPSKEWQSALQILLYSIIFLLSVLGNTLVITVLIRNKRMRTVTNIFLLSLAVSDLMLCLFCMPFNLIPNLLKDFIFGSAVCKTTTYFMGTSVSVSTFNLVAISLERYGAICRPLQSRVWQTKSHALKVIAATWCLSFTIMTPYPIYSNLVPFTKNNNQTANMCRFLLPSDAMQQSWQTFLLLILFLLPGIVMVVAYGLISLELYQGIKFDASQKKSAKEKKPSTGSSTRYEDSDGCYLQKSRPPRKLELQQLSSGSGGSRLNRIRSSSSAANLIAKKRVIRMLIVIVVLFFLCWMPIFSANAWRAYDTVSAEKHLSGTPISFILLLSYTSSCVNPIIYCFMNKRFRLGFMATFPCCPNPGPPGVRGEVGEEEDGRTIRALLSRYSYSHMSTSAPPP
assaySummary: Peripheral receptor (CCK-A) binding experiment, [^3 H]-CCK-8 binding inhibition
assayConditions: ratio of IC50 values CCK-B/CCK-A (selectivity for CCK-A); 60 min
measuredProperty: CCK-B/CCK-A

smilesrecord=CC(C)C(C(C)C)N1CCN(C(=O)[C@H](CSc2ncccc2C(=O)O)NC(=O)c2cc3ccccc3[nH]2)CC1 experimentaltarget="CCK-A (Rattus norvegicus, UniProt P30551)" quantitativereadout=293
smilesrecord=O=C(N[C@@H](CCCn1nncc1C(=O)O)C(=O)N1CCN(C(c2ccccc2)c2ccccc2)CC1)c1cc2ccccc2[nH]1 experimentaltarget="CCK-A (Rattus norvegicus, UniProt P30551)" quantitativereadout=43
smilesrecord=O=C(N[C@@H](CSc1ncccc1C(=O)O)C(=O)N1CCN(C(c2ccccc2)c2ccccc2)CC1)c1cc2ccccc2[nH]1 experimentaltarget="CCK-A (Rattus norvegicus, UniProt P30551)" quantitativereadout=2745

---

experimentalTarget: CCK-B (Rattus norvegicus)
Construct: CCK-B receptors originating in the cell membrane of rat brain cells; from tissue; host or cells: rat cerebrum membranes (male rats, Japan Laboratory Animals)
Sequence (P30553 1-452): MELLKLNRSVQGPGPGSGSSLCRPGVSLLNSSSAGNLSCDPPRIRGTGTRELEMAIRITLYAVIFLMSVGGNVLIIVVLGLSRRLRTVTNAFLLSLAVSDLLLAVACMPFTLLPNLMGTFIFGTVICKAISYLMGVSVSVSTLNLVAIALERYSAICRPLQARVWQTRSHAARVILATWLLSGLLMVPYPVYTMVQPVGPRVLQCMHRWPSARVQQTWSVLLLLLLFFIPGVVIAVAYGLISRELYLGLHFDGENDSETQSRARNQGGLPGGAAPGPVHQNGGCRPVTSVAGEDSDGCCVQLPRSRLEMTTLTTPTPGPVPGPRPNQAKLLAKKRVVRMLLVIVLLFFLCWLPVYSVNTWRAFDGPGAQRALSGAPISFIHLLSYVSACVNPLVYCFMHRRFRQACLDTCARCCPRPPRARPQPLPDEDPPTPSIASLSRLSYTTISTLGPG
assaySummary: Central receptor (CCK-B) binding experiment, [^3 H]-CCK-8 binding inhibition
assayConditions: rat cerebrum homogenate, 0.2 nM [^3 H]-CCK-8, 60 minutes at 25° C
pIC50: −log10 of the molar value.
measuredProperty: pIC50

compound=O=C(N[C@@H](CSc1ncccc1C(=O)O)C(=O)N1CCN(C2c3ccccc3CCc3ccccc32)CC1)c1cc2ccccc2[nH]1 experimentaltarget="CCK-B (Rattus norvegicus)" measuredproperty=pIC50 quantitativereadout=4.19
compound=COc1ccc(C(c2ccc(OC)cc2)N2CCN(C(=O)[C@H](CSc3ncccc3C(=O)O)NC(=O)c3cc4ccccc4[nH]3)CC2)cc1 experimentaltarget="CCK-B (Rattus norvegicus)" measuredproperty=pIC50 quantitativereadout=4.21
compound="CCCCCN(CCCOC)C(=O)C(CCC(=O)O)NC(=O)c1ccc(Cl)c(Cl)c1 (stereo not drawn) [CR1505, Loxiglumide, reference compound]" experimentaltarget="CCK-B (Rattus norvegicus)" measuredproperty=pIC50 quantitativereadout=4.62

---

experimentalTarget: CCK-A (Rattus norvegicus)
Construct: CCK-A receptors prepared from the cell membranes of rat pancreas; from tissue; host or cells: rat pancreas membranes (male rats, Japan Laboratory Animals)
assaySummary: Peripheral receptor (CCK-A) binding experiment, [^3 H]-CCK-8 binding inhibition
assayConditions: ratio of IC50 values CCK-B/CCK-A (selectivity for CCK-A); 60 min
measuredProperty: CCK-B/CCK-A

smilesrecord=O=C(N[C@@H](CSc1ncccc1C(=O)O)C(=O)N1CCN(C(c2ccccn2)c2ccccn2)CC1)c1cc2ccccc2[nH]1 result=1140
smilesrecord=O=C(N[C@@H](Cc1ocnc1C(=O)O)C(=O)N1CCN(C(c2ccccc2)c2ccccc2)CC1)c1cc2ccccc2[nH]1 result=53
smilesrecord=O=C(O)c1cn(CCC[C@H](NC(=O)c2cc3ccccc3[nH]2)C(=O)N2CCN(C(c3ccccc3)c3ccccc3)CC2)nn1 result=17
smilesrecord=COc1ccc2[nH]c(C(=O)N[C@@H](CSc3ncccc3C(=O)O)C(=O)N3CCC(C(c4ccccc4)c4ccccc4)CC3)cc2c1 result=130770
smilesrecord=COc1ccc(C(c2ccc(OC)cc2)N2CCN(C(=O)[C@H](CSc3ncccc3C(=O)O)NC(=O)c3cc4ccccc4[nH]3)CC2)cc1 result=76
smilesrecord=O=C(N[C@@H](CCc1ocnc1C(=O)O)C(=O)N1CCN(C(c2ccccc2)c2ccccc2)CC1)c1cc2ccccc2[nH]1 result=625
smilesrecord=O=C(N[C@@H](CCCn1nnc(C(=O)O)c1C(=O)O)C(=O)N1CCN(C(c2ccccc2)c2ccccc2)CC1)c1cc2ccccc2[nH]1 result=179
smilesrecord=O=C(N[C@@H](CSc1ccccc1C(=O)O)C(=O)N1CCN(C(c2ccccc2)c2ccccc2)CC1)c1cc2ccccc2[nH]1 result=29
